Biological target: T1, CD27 protein (His-tagged, Sino Biological Inc. 10039-H08B1) (human, UniProt P26842 20-192)
T1 construct: bought; coated onto ELISA plates; also called human CD27; recombinant protein; not shown: His tag
T1 sequence (looked up): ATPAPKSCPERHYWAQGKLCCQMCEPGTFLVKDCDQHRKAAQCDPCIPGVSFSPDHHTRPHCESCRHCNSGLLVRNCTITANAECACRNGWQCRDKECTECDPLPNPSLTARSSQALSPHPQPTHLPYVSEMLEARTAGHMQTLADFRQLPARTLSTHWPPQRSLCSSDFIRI
Assay: ELISA on coated His-tagged CD27; note: test concentration or dose not given here
The following binders are shown together with reported ELISA [abs. corr.] values.

# BINDER, ENDPOINT UNIT, ELISA [abs. corr.]
data = [
    ("P018.S.08.A.A01 (antibody, V domains shown, V regions on human Ig constant parts; also called AB27_135) VH: QSVEESGGRLVTPGTPLTLTCTVSGFSLNNYDMNWVRQAPGKGLEWVGYIDTGGSAYYANWVNGRFTISKTSTTVELKMTSLTASDTATYFCARGYIHGYLWGQGTLVTVSS VL: ALVMTQTPSSVSAAVGGTVTINCQASQNVYNNLAWYQQRPGQPPELLIDSASTLASGVSSRFKGSGSGTEFTLTISDLESADAATYYCQSADWESSNFFWAFGGGTEVVVK", "abs. corr.", 3.42),
    ("P018.S.09.A.E06 (antibody, V domains shown, V regions on human Ig constant parts; also called AB27_156) VH: QSVEESGGRLVTPGTPLTLTCTVSGFSLSSYGMIWVRQAPGKGLEWIAWSSSNDNTYYASWAKGRFTISKTSSTTVDLKMTSLTTEDTATYFCARNGVYSTGNYFDLWGQGTLVTVSS VL: AQVLTQTPSPVSAAVGGTVTINCQASQSVYNNNNLAWYQQKPGQPPKFLIYAASRLPSGVPPRFSGSGSGTQFTLTISDVQSDDAATYYCQGEFDCDSADCFAFGGGTEVVVK", "abs. corr.", 3.54),
    ("P018.S.03.A.D02 (antibody, V domains shown, V regions on human Ig constant parts; also called AB27_47) VH: QSVEESGGRLVTPGTPLTLTCTVSGLSLSSYDMSWVRQAPGKGLEWIGYIWSGGTTDYASWAKGRFTISKTSTTVDLKIISPTTEDTATYFCARGYVEFDLWGPGTLVTVSS VL: DPVLTQTPPSVSAAVGGTVTINCQSSQSLYSNNYLSWYQQKPGQPPKVLIWPASSLASGVPSRFKGSGSGTQFTLTISELQSDDAATYYCQGTFYDSGWLSTFGGGTEVVVK", "abs. corr.", 3.37),
    ("P018.S.06.A.F01 (antibody, V domains shown, V regions on human Ig constant parts; also called AB27_107) VH: QSLEESGGRLVTPGTPLTLTCTASGFSLSSYYMTWVRQAPGEGLEWIGTISTAGNTYFASWAKGRFTISRTSTTVDLKMTSPTTEDTATYFCARDGAGDSNYYRNLWGQGTLVTVSS VL: AYDMTQTPASVEAAVGGTVTIKCQASESIDRFLAWYQQKPGQPPKLLIVDASTLESGVPSRFSGSGSGTEFTLTISDLESDNAATYYCQQGYSISDIDNVFGGGTEVVVK", "abs. corr.", 3.4),
    ("P018.S.04.A.C05 (antibody, V domains shown, V regions on human Ig constant parts; also called AB27_70) VH: QSVEESGGRLVTPGTPLTLTCTVSGFSLNYYSMAWVRQVPGEGLEWIGTINTGGGTYYASWAKGRFTISKTSTTVDLKMTSLTAADTATYFCARSDGTGITYYNLWGQGALVTVSS VL: ALVMTQTASPVSAAVGGTVTINCQASETIYSNLAWYQQKQGQPPKLLIYRASNLASGVPSRFSGSESGTQFTLTISGVQSDDAATYYCQGYYNTGITGFGGGTEVVVK", "abs. corr.", 3.17),
    ("P018.S.08.A.A03 (antibody, V domains shown, V regions on human Ig constant parts; also called AB27_136) VH: QSLEESGGRLVTPGTPLTLTCTASGFSLSSYGMIWVRQAPGKGLEWIGMIIDVTYTYYASWAKGRFTISKTSTTVDLKMTSLTTEDTATYFCARTPGYGIYAYGNLWGQGTLVTVSS VL: AQVLTQTPSPVSAAVGGTVTISCQSSQSVYGNNWLAWYQQKPGQPPKLLIYYASTLASGVPSRFKGSGSGTQFTLTISEVQSDDAATYYCQGYYSSAAYVFGGGTEVVVK", "abs. corr.", 3.21),
    ("P018.S.04.A.F04 (antibody, V domains shown, V regions on human Ig constant parts; also called AB27_77) VH: QSVEESGGRLVTPGTPLTLTCTVSGFSLSNYAMSWVRQAPGKGLEWIGIIYASGTTYYARWAKGRFTISRTSTTVDLKISSPTTEDTATYFCAREYDSYDYAYGSSIYAFDPWGPGTLVTVSS VL: AYDMTQTPSSVSAAVGGTVTIKCQASESIYSNLAWYQQKPGQRPKLLIYRASTLASGVSSRFKGSGSGTQFTLSISGVESADAATYYCQQGYSSSNVDNVFGGGTEVVVK", "abs. corr.", 3.35),
    ("P018.S.09.A.A03 (antibody, V domains shown, V regions on human Ig constant parts; also called AB27_144) VH: QEQLVESGGGLVQPEGSLTLTCTASGFSFSSSYYMCWVRQAPGKGPEWIACIYTYSGDTDYANWAKGRFTISKTSSTTVTLQMTSLTAADTATYFCAKAGYGGYGYPIFNLWGPGTLVTVSS VL: AFELTQTPSSVEAAVGGTVTIKCQASQSIGSSLAWYQQKPGQRPKLLMYYVSTLASGVSSRFKGSGSGTEFTLTISDLESADAATYYCQSYYGSGTTVFWAFGGGTEVVVK", "abs. corr.", 3.16),
    ("P018.S.03.A.B02 (antibody, V domains shown, V regions on human Ig constant parts; also called AB27_42) VH: QSLEESGGRLVTPGTPLTLTCTASGFSLSSYDMNWVRQAPGEGLEWIGTITTNSDTYYASWAKGRFTISKTSTTVDLKITSPTTEDTATYFCARGYTTFTLWGQGTLVTVSS VL: DPVLTQTPSSASEPVGGTVTINCQASQNIYSNLAWYQQKPGQPPKLLIYGASTLESGVPSRFSGSGSGTQFTLTISDLESDDAATYYCQCTDYDSNYVVDFGGGTEVVVK", "abs. corr.", 3.41),
    ("P018.S.04.A.H04 (antibody, V domains shown, V regions on human Ig constant parts; also called AB27_79) VH: QSVEESGGRLVTPGTPLTLTCTVSRFSLSTSTMTWVRQAPGKGLEWIGIINGGGSAYYANWAKGRFTISKTSTTVDLKITSPTTEDTATYFCARSYDSYDDIYGTSRLYAFDPWGPGTLVTVSS VL: AYDMTQTPASVEVAVGGTVTINCQASESIYSNLAWYQQKPGQPPKLLIYRASYLASGVSSRFKGSGSGTQFTLTISGVESADAATYYCQQGYSSSDVDNAFGGGTEVVVK", "abs. corr.", 3.46),
]
